// provenance: patent US10155751B2

Experimental system: Recombinant human SYK (amino acids 342-635), GST-SYK kinase fusion protein (Homo sapiens (Human))
Experiment: SYK kinase inhibition test (Kinase Glo luminescence)
Assay type: biochemical
Test settings: read-out: SYK inhibition IC50-value (chapter 5.1)
Metric name: IC50 (nM)
Give the value in nM but do not write nM after it.

Known IC50 results, listed for orientation:
| Compound | IC50 (nM) |
| --- | --- |
| Cc1cc2c(O[C@H](C)[C@H]3CNC(=O)C3)cc(-c3cnn(C(C)(C)C)c3)cn2n1 [example 6.60 on page 587 of WO15017610, reference compound] | 10.3 |
| C[C@@H](Oc1cc(-c2cnn(C3CC3)c2)cc2nn(C)c(F)c12)[C@H]1CNC(=O)C1 | 3.3 |
| Cc1c2c(O[C@H](C)[C@H]3CNC(=O)C3)cc(-c3cnn(C(C)(C)C)c3)cc2nn1C | 0.9 |
| C[C@@H](Oc1cc(-c2cnn(CC3CC3)c2)cc2nn(C)c(F)c12)[C@H]1CNC(=O)C1 | 2.6 |
| Cc1c2c(O[C@H](C)[C@H]3CNC(=O)C3)cc(-c3cnn(C4CCC(F)(F)C4)c3)cc2nn1C (stereo partly drawn) | 1.2 |

Kindly note the recorded IC50 for Cc1cnn2cc(-c3cnn(C(C)(C)C)c3)nc(O[C@H](C)[C@H]3CNC(=O)C3)c12 [example 5.20 on page 506 of WO15017610, reference compound] , which is 0.2

Kindly note the recorded IC50 for `Cc1c2c(O[C@H](C)[C@H]3CNC(=O)C3)nc(-c3c[nH]nc3C(C)(C)C)cc2nn1C` , which is 2.2

Kindly note the recorded IC50 for `Cc1c2c(O[C@H](C)[C@H]3CNC(=O)C3)cc(-c3cnn(CC(C)C)c3)cc2nn1C` , which is 1.8

Kindly note the recorded IC50 for C[C@@H](Oc1cc(-c2cnn(C3CC(C)(C)OC3(C)C)c2)cc2nn(C)c(F)c12)[C@H]1CNC(=O)C1 (stereo partly drawn) , which is 3.2

Kindly note the recorded IC50 for `Cc1c2c(O[C@H](C)[C@H]3CNC(=O)C3)cc(-c3cnn([C@H]4CO[C@@H]5CCCO[C@@H]54)c3)cc2nn1C` , which is 3.3

Kindly note the recorded IC50 for `Cc1c2c(O[C@H](C)[C@H]3CNC(=O)C3)cc(-c3cnn(CCF)c3)cc2nn1C` , which is 1.5

Kindly note the recorded IC50 for `Cc1c2c(O[C@H](C)[C@H]3CNC(=O)C3)cc(-c3cnn(C(C)(C)C#N)c3)cc2nn1C` , which is 2.9
